test system: Streptococcus pneumoniae 1095; assay type: cell-based; details: S. pneumoniae 1095 (ermB); microtiter broth dilution
Observation type: MIC S. pneumo. 1095 (µg/mL)

molecule=CC[C@H]1OC(=O)[C@H](C)C(=O)[C@H](C)[C@@H](O[C@@H]2O[C@H](C)C[C@H](N(C)C)[C@H]2O)[C@](C)(OC)C[C@@H](C)C(=O)[C@H](C)[C@H]2N(CC3(O)CN(S(=O)(=O)c4cccc5cnccc45)C3)C(=O)O[C@]12C scale_unit=µg/mL sign== result_value=1
molecule="CCC1OC(=O)C(C)C(=O)C(C)C(OC2OC(C)CC(N(C)C)C2O)C(C)(OC)CC(C)C(=O)C(C)C2N(CC3C4CN(C(=O)c5cccnc5)CC43)C(=O)OC12C (centres unmarked)" scale_unit=µg/mL sign== result_value=3.12
molecule="CCC1OC(=O)C(C)C(=O)C(C)C(OC2OC(C)CC(N(C)C)C2O)C(C)(OC)CC(C)C(=O)C(C)C2N(CC3CCCN3C(=O)c3nc4cncnc4[nH]3)C(=O)OC12C (centres unmarked)" scale_unit=µg/mL sign=< result_value=0.06
molecule="CCC1OC(=O)C(C)C(=O)C(C)C(OC2OC(C)CC(N(C)C)C2O)C(C)(OC)CC(C)C(=O)C(C)C2N(CC3CCCN3C(=O)c3cccc4[nH]cnc34)C(=O)OC12C (centres unmarked)" scale_unit=µg/mL sign=< result_value=0.06
molecule=CC[C@H]1OC(=O)[C@H](C)C(=O)[C@H](C)[C@@H](O[C@@H]2O[C@H](C)C[C@H](N(C)C)[C@H]2O)[C@](C)(OC)C[C@@H](C)C(=O)[C@H](C)[C@H]2N(CC3(O)CN(C(=O)c4cc5ccncc5[nH]4)C3)C(=O)O[C@]12C scale_unit=µg/mL sign=< result_value=0.06
